These measurements were taken from a melting point compilation (Tetko et al.; mined from patent text by program, amines drawn as free bases though some values may be those of a salt).

Kindly state melting point for each of the entries shown.

Prompt line: Provide one value: measured melting point of N#Cc1cc(C(=O)NNC(=O)c2occc2-c2ccccc2OCc2ccccc2)ccc1O
Response line: 118 to 120 °C

Prompt line: Provide one value: measured melting point of COC(=O)CCCSC(=S)NCc1ccc(Cl)cc1
Response line: 60 to 62 °C

Prompt line: Provide one value: measured melting point of COc1ccc(C#N)c(C)n1
Response line: 80 to 80.5 °C

Prompt line: Provide one value: measured melting point of CCCOc1ccc(C(=O)N/C(=C\c2ccc(OC(F)(F)F)cc2)C(=O)NCCO)cc1
Response line: 185 to 186 °C

----------
Kindly state melting point for each of the entries shown.

Prompt line: Provide one value: measured melting point of CC(C)(C)OCCOc1cc(NC(=O)OC(C)(C)C)c([N+](=O)[O-])cc1I
Response line: 113 to 116 °C

Prompt line: Provide one value: measured melting point of COC(=O)Nc1ccccc1CSc1ncc(C(F)(F)F)cc1Cl
Response line: 111 to 113 °C

Prompt line: Provide one value: measured melting point of CCCCC(=O)Nc1ccc(C(=O)CCC(=O)O)cc1
Response line: 153 to 155 °C

Prompt line: Provide one value: measured melting point of Cc1nc2c(c3c1[nH]c1ccccc13)C(=O)CC(C)C2 (centres undefined)
Response line: 218 to 219 °C

Prompt line: Provide one value: measured melting point of CC(C)(C)C(=O)Nc1ccc2oc3c(c2c1)CCCCC3
Response line: 208 to 209 °C

Prompt line: Provide one value: measured melting point of CC1(C)Oc2ccc(C#N)cc2C(Oc2ccncn2)C1(C)O (centres undefined)
Response line: 103 to 105 °C

Prompt line: Provide one value: measured melting point of CC(C(=O)O)c1ccc2c(c1)C(=O)CC(C(C)C)O2 (centres undefined)
Response line: 94 to 95 °C

Prompt line: Provide one value: measured melting point of N#Cc1ccc(-c2cc(-c3ccc(C#N)cc3[N+](=O)[O-])on2)cc1
Response line: 280 to 281 °C

Prompt line: Provide one value: measured melting point of COCc1cnc2c(NC(=O)c3c(Cl)cccc3Cl)cc(C)cc2c1Cl
Response line: 156 to 158 °C

Prompt line: Provide one value: measured melting point of COC[C@H]1CCCN1NC(=O)Nc1cccc2c1C(=O)c1c-2n[nH]c1-c1ccc(C(=O)N2CCN(C)CC2)s1
Response line: 181 to 183 °C

Prompt line: Provide one value: measured melting point of Cc1cc(Oc2cc(C(F)(F)F)nn2C)nc(-c2ccsc2)n1
Response line: 122 °C

Prompt line: Provide one value: measured melting point of CCOCc1nc2c(N)nc3cc(OCCCN4CCCC4=O)ccc3c2n1CCCCNS(C)(=O)=O
Response line: 157 °C

Prompt line: Provide one value: measured melting point of COc1ccc(C(=O)C=CC(=O)O)cc1OC
Response line: 174 to 175 °C

Prompt line: Provide one value: measured melting point of Cc1ccc(-c2ccc3c(c2)C=C(C(=O)NC2CCN(CC4=CCCCCCCC4)CC2)CCO3)cc1
Response line: 128 to 130 °C

----------
Non-standard residues stand in square brackets, D forms with d. Residues, ends and D or L forms follow the SMILES beside them. pGlu = O=C1CC[C@@H](C(=O)O)N1
reportedProperty: melting point

Prompt line: Provide one value: measured melting point of O=C1CCCN1C(=O)NCCS(=O)c1ccccn1 (stereo unspecified)
Response line: 120 °C

Prompt line: Provide one value: measured melting point of Oc1ccc2oc3ccccc3c2c1Cn1c(=S)sc2ccccc21
Response line: 174 to 180 °C

Prompt line: Provide one value: measured melting point of CC(C)c1cccc(-c2ccc(F)cc2)c1OCCOc1ccc(C(=O)C(=O)O)cc1
Response line: 123 to 125 °C

Prompt line: Provide one value: measured melting point of CCCC1=CC(NC)=Nc2ccc(Cl)cc2C(c2ccccc2)=[N+]1[O-]
Response line: 104 to 106 °C

Prompt line: Provide one value: measured melting point of O=C(C1CCN(S(=O)(=O)c2ccc3cc(Br)ccc3c2)CC1)N1CCN(c2ccncc2)CC1
Response line: 229 to 230 °C

Prompt line: Provide one value: measured melting point of COC(=O)[C@H](CS)NC(=O)[C@@H]1CCC(=O)N1 ([pGlu]-Cys-OMe)
Response line: 114 to 116 °C

----------
Kindly state melting point for each of the entries shown.
Write the number in °C without appending the unit.

Prompt line: Provide one value: measured melting point of Cn1c(N)nc2cc(CN3CCN(C(c4ccccc4)c4ccccc4)CC3)ccc21
Response line: 268

Prompt line: Provide one value: measured melting point of Oc1ccccc1-c1nnn[nH]1
Response line: 228

----------
Kindly state melting point for each of the entries shown.

Prompt line: Provide one value: measured melting point of Cc1ccc(S(=O)(=O)n2c(I)cc3c(Br)ccnc32)cc1
Response line: 140 to 143 °C

Prompt line: Provide one value: measured melting point of CN(C)C1CCN(C(=O)C2CCC(Nc3nccc(-n4ccc5c(OCCCS(C)(=O)=O)cccc54)n3)CC2)CC1 (stereo not given)
Response line: 182 to 183 °C

Prompt line: Provide one value: measured melting point of COc1ccc(Cl)c(CC#N)c1
Response line: 62 to 65 °C

Prompt line: Provide one value: measured melting point of CC(=O)NC(C)c1ccc(CN2CCN(c3ncccn3)CC2)cc1 (stereo not given)
Response line: 124 to 126 °C

Prompt line: Provide one value: measured melting point of CC1(C)C=C(C(=O)c2ccc3c(c2)CCN(C(N)=O)C3)C(C)(C)CC1
Response line: 78.6 to 79.7 °C

----------
Kindly state melting point for each of the entries shown.

Prompt line: Provide one value: measured melting point of CNc1ccc([N+](=O)[O-])cc1C(F)(F)F
Response line: 99 to 101 °C

Prompt line: Provide one value: measured melting point of O=[N+]([O-])c1ccc(Cl)c(C=Cc2nc3ccccc3o2)c1
Response line: 230 °C

Prompt line: Provide one value: measured melting point of Cc1cc(-c2cc(COS(C)(=O)=O)c(=O)n(CC(C)C)n2)ccc1F
Response line: 115 to 117 °C

Prompt line: Provide one value: measured melting point of CN(CCO)C(=O)Nc1ccc2c(c1Cl)C(c1ccccc1F)=NCC(=O)N2C
Response line: 218 to 220 °C

Prompt line: Provide one value: measured melting point of CN(CCN1C(=O)c2ccccc2C(C)(C)C1=O)CCN1C(=O)c2ccccc2C(C)(C)C1=O
Response line: 106 to 107 °C

Prompt line: Provide one value: measured melting point of CC(=O)N1CCN(c2cc3c(c(C)c2F)c(=O)c(C(=O)O)cn3C2CC2)CC1
Response line: 261 to 263 °C

Prompt line: Provide one value: measured melting point of COC(=O)c1cc(C)cc(OC)c1C1=C(OC)C(=O)c2c(O)cccc2C1=O
Response line: 165 to 167 °C

Prompt line: Provide one value: measured melting point of CCOC(=O)c1cnc2ccccc2c1O
Response line: 266 °C

Prompt line: Provide one value: measured melting point of CC(C)CNCC(=O)Nc1ccc2c(c1)C(=O)c1cc(NC(=O)CNCC(C)C)ccc1C2=O
Response line: 146 °C

Prompt line: Provide one value: measured melting point of CCC(CC)Oc1nc(C)nc(Nc2c(C)cc(C)cc2C)c1C(=O)O
Response line: 118 to 120 °C

Prompt line: Provide one value: measured melting point of NNC(=O)c1ccc2occ(-c3cc(F)ccc3F)c2c1
Response line: 198 to 199 °C

Prompt line: Provide one value: measured melting point of Cc1n[nH]c(C)c1-c1ccc(OC2SCC(O)C(O)C2O)cn1 (stereo not drawn)
Response line: 210 °C

Prompt line: Provide one value: measured melting point of N#Cc1ccc(Oc2cccc(F)c2)cc1
Response line: 67 to 69 °C

Prompt line: Provide one value: measured melting point of Cc1ccnc(Cn2ccnc2)c1O
Response line: 170 to 172 °C

Prompt line: Provide one value: measured melting point of COC1C(N(C)S(C)(=O)=O)c2cc(OCc3ccccc3)ccc2OC1(C)C (stereo not drawn)
Response line: 119 to 121 °C

Prompt line: Provide one value: measured melting point of CC1=C(C(=O)OCc2ccccc2)C2CCC(CCOC(=O)c3ccc(Br)cc3)N2C(=NC(=O)c2ccc(Br)cc2)N1 (stereo not drawn)
Response line: 175 to 176 °C

Prompt line: Provide one value: measured melting point of O=C(O)c1ccc(-c2coc(-c3cccc(C(F)(F)F)c3)n2)cc1
Response line: 268 to 269 °C

Prompt line: Provide one value: measured melting point of O=C(Nc1nc(Cc2ccccc2)c(C(=O)c2sc(NC(=O)Oc3ccccc3)nc2Cc2ccccc2)s1)Oc1ccccc1
Response line: > 285 °C

----------
Kindly state melting point for each of the entries shown.

Prompt line: Provide one value: measured melting point of C=CCOC(=O)c1ccc(N=Cc2ccc3c(c2Cl)C(C)(C)CCC3(C)C)cc1
Response line: 80 °C

Prompt line: Provide one value: measured melting point of CCc1ccc(Nc2nc3cc(NC(=O)c4cc(F)cc(C(F)(F)F)c4)ccc3o2)cc1
Response line: > 250 °C

Prompt line: Provide one value: measured melting point of O=c1nc(N2CCCc3ccccc32)sc2ncccc12
Response line: 174 to 175 °C
